Reference source: patent US20240124857A1

assay: pH profile of enzymes on 1 mM ATP; format: biochemical; details: 50 mM trisodium citrate/citric acid, 5 mM CaCl2, relative to the highest value
Measure: Relative activity on ATP, pH 6

## Input Return the recorded Relative activity on ATP, pH 6 value; entry: CRC25100: Acid phosphatase (Class A), internal database, SEQ ID NO:24 (protein, environmental sample) GENSGFLSPETSPNSLEILPPPPSEGSIAFLNDKANYDIGHTLKNEGRLAQAVSDANYKNLTDAFSKAFGETISEQNTPALYSLLQNVLQDSHDFAMRAAKDHYKRVRPFVIYKDHTCTPAEDTKMAKTGSYPSGHASFGWATALVLSEINPARETEILKRGYEFGQSRVICGAHWQSDVDSGRIMGAAVVASLHNNSDFISALAKAKEEFRKK
## Output 1.0
